Assay: Solvent solubility screen
Assay type: physicochemical
Conditions: acetonitrile, 40 °C, organic solvent or mixture, thermodynamic from solid; read-out: Approximate Solubility

[
  {
    "CHEM_SMILES": "COC(=O)c1ccc2c(c1)NC(=O)/C2=C(\\Nc1ccc(N(C)C(=O)CN2CCN(C)CC2)cc1)c1ccccc1",
    "solubility": "< 10000 µg/mL"
  }
]

----------
Assay: Aqueous solubility assessment of salts
Format: physicochemical
Conditions: thermodynamic from solid; deionized water added to 20 mg of salt; read-out: solubility in water
Structures can show the parent of a compound that is named as a salt.
ENDPOINT: solubility

[
  {
    "COMPOUND": "COC(=O)c1ccc2c(c1)NC(=O)/C2=C(\\Nc1ccc(N(C)C(=O)CN2CCN(C)CC2)cc1)c1ccccc1 [Nintedanib HCl]",
    "RESULT": "~11 mg/mL"
  }
]
